Molecular target: T1, ActRIIA-Fc homodimer (UniProt P27037 20-135)
T1 construct: extracellular domain
T1 sequence (P27037 20-135): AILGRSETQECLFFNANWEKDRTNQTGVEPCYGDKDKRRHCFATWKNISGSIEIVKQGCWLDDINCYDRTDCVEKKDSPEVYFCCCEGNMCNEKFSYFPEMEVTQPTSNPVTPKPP
Experiment: Biacore SPR
Consider the following binders; for each one, report its Kd.
Numbers only, in nM.

Take a look at these entries with their results.
GDF3 (ligand, UniProt Q9NR23 251-364, looked up) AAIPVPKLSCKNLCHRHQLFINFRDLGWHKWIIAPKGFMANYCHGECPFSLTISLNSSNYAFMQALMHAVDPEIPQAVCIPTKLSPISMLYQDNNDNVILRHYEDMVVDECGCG
2.4
BMP10 (ligand, UniProt O95393 317-424, looked up) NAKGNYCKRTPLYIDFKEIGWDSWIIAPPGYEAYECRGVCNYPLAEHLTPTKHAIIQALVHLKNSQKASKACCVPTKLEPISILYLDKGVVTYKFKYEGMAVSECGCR
0.085
activin B (ligand, UniProt P09529 293-407, looked up) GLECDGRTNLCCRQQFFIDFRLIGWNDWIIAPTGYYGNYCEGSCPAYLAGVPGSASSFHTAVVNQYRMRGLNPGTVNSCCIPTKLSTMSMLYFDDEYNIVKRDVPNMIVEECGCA
0.01

Now consider a different binder.
Q: Which Kd reading was recorded for the binder GDF11 (ligand, UniProt O95390 299-407, looked up, also called BMP11) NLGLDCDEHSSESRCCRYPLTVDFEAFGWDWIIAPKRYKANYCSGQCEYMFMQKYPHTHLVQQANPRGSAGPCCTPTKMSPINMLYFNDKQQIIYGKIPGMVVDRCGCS ?
Ans: 0.013
